Target: Aurora kinase B (Homo sapiens);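 further: reported percent inhibition is a mean value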
Conditions: at 1 µM
Provide the recorded inhibition for the entries that follow.

Recorded inhibition of COc1cc(Nc2ncc(-c3ccccc3)o2)cc(OC)c1 , please.
19.7%

I would be grateful if you could share the reported inhibition for COC(=O)Nc1nc2cc(Oc3ccc(NC(=O)Nc4ccccc4)cc3)ccc2[nH]1 .
24.9%

Field request: inhibition | item: O=C(O[C@H]1CN[C@H](C#Cc2cc3ncnc(Nc4ccc(OCc5cccc(F)c5)c(Cl)c4)c3s2)C1)N1CCOCC1
9.81%

Requested field: inhibition. Item: Cc1cc(O)cc(C)c1/C=C/c1cncc(C(N)=O)c1
7.09%

Data request, read-out inhibition, for CS(=O)(=O)Nc1ccc(-c2cc(-c3ccccc3)cc(C(N)=O)c2N)cc1
5.23%

What value of inhibition has been reported for the following molecule? FC(F)(F)CNc1nccc(-c2cnn3ncccc23)n1
4.22%

Which inhibition value belongs to NS(=O)(=O)c1ccc(N/N=C2\C(=O)Nc3cccc(CCc4ccncc4)c32)cc1 ?
7.9%

// query inhibition value for entry Fc1ccc(Nc2nccc(-c3c(-c4ccc(C(F)(F)F)cc4)nn4ncccc34)n2)cc1F
4.62%

Quick one: inhibition of Fc1cccc(COc2ccc(Nc3ncncc3C#Cc3ccccc3)cc2Cl)c1 ?
6%

Sample COc1c(C(N)=O)cc(-c2ccc(Cl)cc2)cc1-c1ccc(S(N)(=O)=O)cc1 — what was its inhibition?
3.28%
